For each entry below, report its max response value.
System: NIH3T3
Assay: Cytotoxic Profiling of Annotated Libraries Using Quantitative High-Throughput Screening (AID 1296008); also: % is scaled to controls: 0 for no effect and ±100 for the full control effect
Details: Five cell lines viability, CellTiter-Glo ATP luminescence, 48-72 h; stronger effect = lower value
Records with an inconclusive call do not appear.
Give bare numbers, in %.

# example entries with known answers
Suppose we examine the compound c1ccc2c(CC3=NCCN3)cccc2c1 ; what max response value has been reported?
1.32

So what does the record say about max response for CC(=O)c1ccc2c(c1)N(CCCN(C)C)c1ccccc1S2 ?
1.48

If you can, please state the reported max response value of N[C@H]1C(O)O[C@H](CO)[C@@H](O)[C@@H]1O (stereo partly drawn) .
-13.4

Find the recorded max response belonging to CC/C=C(\C(=O)N[C@@H]1C(=O)N2C(C(=O)OCOC(=O)C(C)(C)C)=C(COC(N)=O)CS[C@H]12)c1csc(N)n1 and report it.
-1.08

Query: max response; subject: CCN(CC)CCNC(=O)c1c(C)[nH]c(/C=C2\C(=O)Nc3ccc(F)cc32)c1C
-10.6

Can you look up the measured max response of NC(=O)NC(=O)Cc1ccccc1 for me?
3.84

Given the compound CC1=C(CC(=O)O)c2cc(F)ccc2/C1=C\c1ccc(S(C)(=O)=O)cc1 , what is its reported max response?
-5.99

Endpoint output: max response of O=C(O)CN1C(=O)c2cccc3cccc(c23)C1=O . Value?
0.928

Please look up its max response: CC1=C(C/C=C(\C)CCC[C@H](C)CCC[C@H](C)CCCC(C)C)C(=O)c2ccccc2C1=O
1.11

For the compound COc1ccccc1O , what max response is on record?
-2.65

Field: max response. Fill in for each record below.
1. COc1ccc2[nH]c(S(=O)Cc3ncc(C)c(OC)c3C)nc2n1 (stereo not drawn)
2. C=Cc1c(C)c2cc3[nH]c(cc4nc(cc5nc(cc1[nH]2)C(C)=C5CCC(=O)O)C(CCC(=O)O)=C4C)c(C)c3C=C
3. COc1cc2[nH]c(=O)[nH]c(=O)c2cc1OC
4. COc1cc(C)c(Cc2cnc(N)nc2N)cc1OC
5. O=C1Nc2ccc(Cl)cc2[C@@](C#CC2CC2)(C(F)(F)F)O1
6. Cc1ncc([N+](=O)[O-])n1CC(O)CCl (stereo not drawn)

1: 3.86; 2: -14.7; 3: 2.37; 4: 0.338; 5: 3.57; 6: -5.9

// for each compound below, give its max response
1. C[C@@H](O)[C@H](N)C(=O)O
2. OCC(CO)N[C@H]1C[C@](O)(CO)[C@@H](O)[C@H](O)[C@H]1O
3. CCOC(=O)[C@H](CCc1ccccc1)N[C@@H](C)C(=O)N1C(=O)N(C)C[C@H]1C(=O)O
4. Nc1ccc(S(=O)(=O)Nc2ccccc2)cc1
5. CNCC(O)c1ccc(O)c(O)c1 (stereo not drawn)
6. O=C(O)Cc1sc(-c2ccccc2)nc1-c1ccc(Cl)cc1
7. C=CCn1c(=O)n([C@@H]2O[C@H](CO)[C@@H](O)[C@H]2O)c2nc(N)[nH]c(=O)c21

1: -1.06; 2: 3.34; 3: 4.99; 4: 3.32; 5: -1.98; 6: -0.692; 7: 4.38

---

Assay: qHTS assay for small molecule agonists of retinoid X receptor alpha signaling (AID 588544)
Conditions: HEK293T RXRa-UAS-bla, beta-lactamase reporter, 18 h; 530 nm emission
Inconclusive results are not listed.
Category | rule: reported max response within range, see bottom (below -10%), middle (-10% to below 10%), top (10% or more)

Would you please look over these solved cases?
Please classify: C[C@]12CC[C@@H]3c4ccc(O)cc4CC[C@H]3[C@@H]1CCC2=O
middle

The entry to classify is CC1(C)[C@@H]2CC[C@@]1(C)C(=O)C2 ; which class holds it?
middle

# bin label for CC12CCC(CC1)C(C)(C)O2
bottom

Next:
# bin lookup: classify O=C1c2c(O)cccc2Cc2cccc(O)c21 by its max response
bottom

For the record CC(CN1c2ccccc2Sc2ccccc21)N(C)C (stereo not given) , report the class its max response corresponds to.
top

Band of CCCCC(CC)COC(=O)c1ccccc1O (stereo not given) ?
bottom

Which max response band matches CN(C)CCOC(C)(c1ccccc1)c1ccccn1 (stereo not given) ?
top

Please classify: CN(C)CCCN1c2ccccc2Sc2ccc(Cl)cc21
middle

Kindly state the category for this compound: Nc1ccc(S(=O)(=O)Nc2nccs2)cc1
top
